Conditions: in methanol, 278.15 K

STRUCTURE_SMILES_STRING	solubility (mole fraction)
CC(=O)c1c(C)c([N+](=O)[O-])c(C(C)(C)C)c([N+](=O)[O-])c1C	0.0013

###

Settings: in methanol, 313.15 K

STRUCTURE_SMILES_STRING	solubility (mole fraction)
CC(=O)c1c(C)c([N+](=O)[O-])c(C(C)(C)C)c([N+](=O)[O-])c1C	0.00442

###

Conditions: in ethanol, 298.15 K
ASSAY_ENDPOINT: solubility (mole fraction)

STRUCTURE_SMILES_STRING	RESULT
CC(=O)c1c(C)c([N+](=O)[O-])c(C(C)(C)C)c([N+](=O)[O-])c1C	0.00444

###

Conditions: in methanol, 303.15 K

STRUCTURE_SMILES_STRING	solubility (mole fraction)
CC(=O)c1c(C)c([N+](=O)[O-])c(C(C)(C)C)c([N+](=O)[O-])c1C	0.00318

###

Conditions: in ethanol, 313.15 K
ASSAY_ENDPOINT: solubility (mole fraction)

STRUCTURE_SMILES_STRING	ASSAY_ENDPOINT	RESULT
CC(=O)c1c(C)c([N+](=O)[O-])c(C(C)(C)C)c([N+](=O)[O-])c1C	solubility (mole fraction)	0.00753

###

Conditions: in DMF, 288.15 K
ASSAY_ENDPOINT: solubility (mole fraction)

STRUCTURE_SMILES_STRING	ASSAY_ENDPOINT	RESULT
CC(=O)c1c(C)c([N+](=O)[O-])c(C(C)(C)C)c([N+](=O)[O-])c1C	solubility (mole fraction)	0.0998

###

Details: in ethanol, 278.15 K

STRUCTURE_SMILES_STRING	solubility (mole fraction)
CC(=O)c1c(C)c([N+](=O)[O-])c(C(C)(C)C)c([N+](=O)[O-])c1C	0.00197

###

Conditions: in DMF, 313.15 K
ASSAY_ENDPOINT: solubility (mole fraction)

STRUCTURE_SMILES_STRING	ASSAY_ENDPOINT	RESULT
CC(=O)c1c(C)c([N+](=O)[O-])c(C(C)(C)C)c([N+](=O)[O-])c1C	solubility (mole fraction)	0.187

###

Settings: in methanol, 283.15 K

STRUCTURE_SMILES_STRING	solubility (mole fraction)
CC(=O)c1c(C)c([N+](=O)[O-])c(C(C)(C)C)c([N+](=O)[O-])c1C	0.00156

###

Conditions: in DMF, 293.15 K
ASSAY_ENDPOINT: solubility (mole fraction)

STRUCTURE_SMILES_STRING	RESULT
CC(=O)c1c(C)c([N+](=O)[O-])c(C(C)(C)C)c([N+](=O)[O-])c1C	0.113

###

Settings: in methanol, 318.15 K

STRUCTURE_SMILES_STRING	solubility (mole fraction)
CC(=O)c1c(C)c([N+](=O)[O-])c(C(C)(C)C)c([N+](=O)[O-])c1C	0.00515

###

Conditions: in DMF, 278.15 K
ASSAY_ENDPOINT: solubility (mole fraction)

STRUCTURE_SMILES_STRING	RESULT
CC(=O)c1c(C)c([N+](=O)[O-])c(C(C)(C)C)c([N+](=O)[O-])c1C	0.0747
